Parameter: Mean NFκB response. Scope: all listed entries.
- Test system: NF-κB activity in HEK293 NF-κB reporter cells
- ASSAY_SUMMARY: NF-kB activity assay (GFP reporter, ionomycin/PMA)
- Type: cell-based
- EXPERIMENTAL_SETUP: 3 µM, 21 h, n=3
READOUT_LABEL: Mean NFκB response

> print(dat)
                                   molecule                               target.desc       readout.label                         recorded.value
1       CC/C(=C(/CC)c1ccc(O)cc1)c1ccc(O)cc1  NF-κB activity in HEK293 NF-κB reporter cells  Mean NFκB response  34670.00 GFP+-cells/confluence ∙ 1000
2  CC#C[C@]1(O)CC[C@H]2[C@@H]3CCC4=CC(=O)CCC4=C3[C@@H](c3ccc(N(C)C)cc3)C[C@@]21C  NF-κB activity in HEK293 NF-κB reporter cells  Mean NFκB response  38440.00 GFP+-cells/confluence ∙ 1000
3  CC/C(=C(\c1ccc(O)cc1)c1ccc(OCCN(C)C)cc1)c1ccccc1 [(Z)-4-Hydroxytamoxifen]  NF-κB activity in HEK293 NF-κB reporter cells  Mean NFκB response  42295.79 GFP+-cells/confluence ∙ 1000
4   CCN(CC)c1ccc(/C=N/NC(=O)c2ccc(O)cc2)cc1  NF-κB activity in HEK293 NF-κB reporter cells  Mean NFκB response  42820.00 GFP+-cells/confluence ∙ 1000
5     CC(C)c1ccc(/C=N/NC(=O)c2ccc(O)cc2)cc1  NF-κB activity in HEK293 NF-κB reporter cells  Mean NFκB response  40543.33 GFP+-cells/confluence ∙ 1000

Data origin, for the record: paper PMC11790914
